- Species: Rattus norvegicus
- measurement.protocol: Open TG-GATES - Regimen: Daily Repeat
- Assay type: toxicity, organism-based, Sprague-Dawley
- Parameters: regimen Daily Repeat, gender Male, age 6 weeks
- condition.info: in vivo, po, 0 mg/kg, 72 h, tissue Kidney, route gavage, dose level Control, time 3 day
measured.parameter: KIDNEY_R (g)
# number only, unit g dropped from output

[[record]]
compound = "Cn1c(=O)c2c(ncn2C)n(C)c1=O"
units = "g"
endpoint_result = 1

[[record]]
compound = "COc1ccc(O)c(C(C)(C)C)c1.COc1ccc(O)cc1C(C)(C)C [BUTYLATED HYDROXYANISOLE]"
units = "g"
endpoint_result = 0.9

[[record]]
compound = "O=C1CN(/N=C/c2ccc(-c3ccc([N+](=O)[O-])cc3)o2)C(O)=N1"
units = "g"
endpoint_result = 1.1

[[record]]
compound = "C=CCO"
units = "g"
endpoint_result = 1

[[record]]
compound = "CS(=O)(=O)Nc1ccc([N+](=O)[O-])cc1Oc1ccccc1 [NIMESULIDE]"
units = "g"
endpoint_result = 1


As a next step, examine the compound that follows.
Exam item: Field request: KIDNEY_R | item: `Cn1cnc([N+](=O)[O-])c1Sc1ncnc2nc[nH]c12`
Marked response: 0.9

====

- Organism: Rattus norvegicus
- measurement.protocol: Open TG-GATES - Regimen: Daily Repeat
- Type: toxicity, organism-based, Sprague-Dawley
- Design: regimen Daily Repeat, gender Male, age 6 weeks
- condition.info: in vivo, po, 0 mg/kg, […], tissue Plasma, route gavage, dose level Control, time 14 day
Reported Na values for the following molecules.
Please don't drop the unit; write it after the number.

[[record]]
molecule = "O=C1CN(/N=C/c2ccc(-c3ccc([N+](=O)[O-])cc3)o2)C(O)=N1"
endpoint_result = "141.8 meq/L"

[[record]]
molecule = "Cn1cnc([N+](=O)[O-])c1Sc1ncnc2nc[nH]c12"
endpoint_result = "143.6 meq/L"

[[record]]
molecule = "Cc1cccc(Nc2cc(Cl)nc(SCC(=O)O)n2)c1C"
endpoint_result = "143.4 meq/L"

[[record]]
molecule = "C=CCO"
endpoint_result = "140.2 meq/L"

[[record]]
molecule = "COc1ccc(Cl)cc1C(=O)NCCc1ccc(S(=O)(=O)NC(=O)NC2CCCCC2)cc1 [GLYBURIDE]"
endpoint_result = "140.4 meq/L"


Exam item: Field request: Na | item: COc1ccc(O)c(C(C)(C)C)c1.COc1ccc(O)cc1C(C)(C)C [BUTYLATED HYDROXYANISOLE]
Marked response: 143 meq/L

Exam item: Next up: CS(=O)(=O)Nc1ccc([N+](=O)[O-])cc1Oc1ccccc1 [NIMESULIDE]
Marked response: 140.6 meq/L

====

- Species on record: Rattus norvegicus
- measurement.protocol: Open TG-GATES - Regimen: Single
- Format: toxicity, organism-based, Sprague-Dawley
- Parameters: regimen Single, gender Male, age 6 weeks
- condition.info: in vivo, po, 0 mg/kg, 9 h, tissue Plasma, route gavage, dose level Control
Reported BUN values for the following compounds.
# number only, unit mg/dL dropped from output

Example results:
[[record]]
compound = "O=C1NC(=O)C(c2ccccc2)(c2ccccc2)N1 [PHENYTOIN]"
measured_parameter = "BUN"
endpoint_result = 9.8

[[record]]
compound = "C=CCO [ALLYL ALCOHOL]"
measured_parameter = "BUN"
endpoint_result = 12

[[record]]
compound = "COc1ccc(Cl)cc1C(=O)NCCc1ccc(S(=O)(=O)NC(=O)NC2CCCCC2)cc1 [GLYBURIDE]"
measured_parameter = "BUN"
endpoint_result = 10.8

[[record]]
compound = "CS(=O)(=O)Nc1ccc([N+](=O)[O-])cc1Oc1ccccc1 [NIMESULIDE]"
measured_parameter = "BUN"
endpoint_result = 12.4

[[record]]
compound = "Cc1cccc(Nc2cc(Cl)nc(SCC(=O)O)n2)c1C [PIRINIXIC ACID]"
measured_parameter = "BUN"
endpoint_result = 10.6

[[record]]
compound = "Cn1cnc([N+](=O)[O-])c1Sc1ncnc2nc[nH]c12 [AZATHIOPRINE]"
measured_parameter = "BUN"
endpoint_result = 10.6

[[record]]
compound = "COc1ccc(O)c(C(C)(C)C)c1.COc1ccc(O)cc1C(C)(C)C [BUTYLATED HYDROXYANISOLE]"
measured_parameter = "BUN"
endpoint_result = 8.8


Exam item: Field request: BUN | item: S=C=Nc1cccc2ccccc12 [1-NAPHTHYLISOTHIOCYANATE]
Marked response: 10.8

====

Reported KIDNEY_R values for the following compounds.
- Species: Rattus norvegicus
- measurement.protocol: Open TG-GATES - Regimen: Daily Repeat
- Assay type: toxicity, organism-based, Sprague-Dawley
- Parameters: regimen Daily Repeat, gender Male, age 6 weeks
- condition.info: in vivo, po, 0 mg/kg, 72 h, tissue Kidney, route gavage, dose level Control, time 3 day
# number only, unit g dropped from output

[[record]]
compound = "O=P1(N(CCCl)CCCl)NCCCO1 (stereo not given) [CYCLOPHOSPHAMIDE ANHYDROUS]"
units = "g"
endpoint_result = 0.9

[[record]]
compound = "Cc1cccc(Nc2cc(Cl)nc(SCC(=O)O)n2)c1C"
units = "g"
endpoint_result = 1

[[record]]
compound = "COc1ccc(Cl)cc1C(=O)NCCc1ccc(S(=O)(=O)NC(=O)NC2CCCCC2)cc1 [GLYBURIDE]"
units = "g"
endpoint_result = 1

[[record]]
compound = "Cc1cnc(NC(=O)C2=C(O)c3ccccc3S(=O)(=O)N2C)s1"
units = "g"
endpoint_result = 1


Exam item: Field request: KIDNEY_R | item: `O=C1NC(=O)C(c2ccccc2)(c2ccccc2)N1`
Marked response: 1

====

- Organism: Rattus norvegicus
- measurement.protocol: Open TG-GATES - Regimen: Single
- Type: toxicity, organism-based, Sprague-Dawley
- Set-up: regimen Single, gender Male, age 6 weeks
- condition.info: in vivo, po, 0 mg/kg, 6 h, tissue Blood, route gavage, dose level Control
measured.parameter: MCHC (%)
# number only, unit % dropped from output

Example results:
[[record]]
molecule = "CS(=O)(=O)Nc1ccc([N+](=O)[O-])cc1Oc1ccccc1 [NIMESULIDE]"
endpoint_result = 33.7

[[record]]
molecule = "Cc1cccc(Nc2cc(Cl)nc(SCC(=O)O)n2)c1C"
endpoint_result = 34.3

[[record]]
molecule = "O=P1(N(CCCl)CCCl)NCCCO1 (centres undefined) [CYCLOPHOSPHAMIDE ANHYDROUS]"
endpoint_result = 33.5

[[record]]
molecule = "S=C=Nc1cccc2ccccc12 [1-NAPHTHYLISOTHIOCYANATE]"
endpoint_result = 36

[[record]]
molecule = "Cn1cnc([N+](=O)[O-])c1Sc1ncnc2nc[nH]c12"
endpoint_result = 33.7


Exam item: Field request: MCHC | item: COc1ccc(O)c(C(C)(C)C)c1.COc1ccc(O)cc1C(C)(C)C [BUTYLATED HYDROXYANISOLE]
Marked response: 34.2

Exam item: Next up: `Cc1cnc(NC(=O)C2=C(O)c3ccccc3S(=O)(=O)N2C)s1`
Marked response: 33.8

Exam item: Next up: `O=C1NC(=O)C(c2ccccc2)(c2ccccc2)N1`
Marked response: 33.6

Exam item: Next up: CNCCC(Oc1ccc(C(F)(F)F)cc1)c1ccccc1.Cl (centres undefined) [FLUOXETINE HYDROCHLORIDE]
Marked response: 32.2

====

- Species on record: Rattus norvegicus
- measurement.protocol: Open TG-GATES - Regimen: Single
- Assay type: toxicity, organism-based, Sprague-Dawley
- Parameters: regimen Single, gender Male, age 6 weeks
- condition.info: in vivo, po, 0 mg/kg, 24 h, tissue Plasma, route gavage, dose level Control
Reported ALP values for the following molecules.
# number only, unit IU/L dropped from output

[[record]]
molecule = "Cc1cnc(NC(=O)C2=C(O)c3ccccc3S(=O)(=O)N2C)s1"
units = "IU/L"
endpoint_result = 981.2

[[record]]
molecule = "S=C=Nc1cccc2ccccc12 [1-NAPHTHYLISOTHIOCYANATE]"
units = "IU/L"
endpoint_result = 1087.6


Exam item: Field request: ALP | item: COc1ccc(O)c(C(C)(C)C)c1.COc1ccc(O)cc1C(C)(C)C [BUTYLATED HYDROXYANISOLE]
Marked response: 1843.2

Exam item: Next up: `O=C1NC(=O)C(c2ccccc2)(c2ccccc2)N1`
Marked response: 1864.2

Exam item: Next up: `Cc1cccc(Nc2cc(Cl)nc(SCC(=O)O)n2)c1C`
Marked response: 1823.2

Exam item: Next up: `O=C1CN(/N=C/c2ccc(-c3ccc([N+](=O)[O-])cc3)o2)C(O)=N1`
Marked response: 993.6

Exam item: Next up: CNCCC(Oc1ccc(C(F)(F)F)cc1)c1ccccc1.Cl (stereo unspecified) [FLUOXETINE HYDROCHLORIDE]
Marked response: 1409.4

Exam item: Next up: COc1ccc(Cl)cc1C(=O)NCCc1ccc(S(=O)(=O)NC(=O)NC2CCCCC2)cc1 [GLYBURIDE]
Marked response: 1024.2

Exam item: Next up: `Cn1cnc([N+](=O)[O-])c1Sc1ncnc2nc[nH]c12`
Marked response: 1642

Exam item: Next up: CS(=O)(=O)Nc1ccc([N+](=O)[O-])cc1Oc1ccccc1 [NIMESULIDE]
Marked response: 1023

Exam item: Next up: `C=CCO`
Marked response: 963.4

src = ChEMBL document CHEMBL3885861
